The measurements presented in this section are drawn from patent US20240059769A1.

Entries and their measured pKd follow.
Measurement target: T1, recombinant cynomolgus monkey IL-13 (cynomolgus monkey, UniProt Q0PW92 21-132)
T1 construct: bought; also called rc-IL-13; cIL-13
T1 sequence (Q0PW92 entry or part of it): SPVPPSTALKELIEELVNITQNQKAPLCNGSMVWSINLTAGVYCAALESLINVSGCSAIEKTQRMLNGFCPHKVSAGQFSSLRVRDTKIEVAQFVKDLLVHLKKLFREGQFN
Assay info: SPR
Units for pKd: none; it is -log10 of a concentration expressed in mol/L.

Observe how each entry below is paired with its result.
INSERT INTO assay_data (binder, numeric_readout) VALUES
  ('BDG38.096 (antibody, V domains shown, IgG1) VH: QMQLVESGGGVVQPGRSLRLSCAASGFEFRTYGMHWVRQAPGKGLEWVAVIWDDGSNTHYADSVKGRFTITRDNSKNTLNLQMNSLRVEDTAVYYCVRAPQWYLTAEAFDLWGQGTMVTVSS VL: SYILTQPPSVSVAPGETARITCGGNLIGARLVHWYQQKPGQAPVLVIYDDSDRPSRIPERFSGSNIGNTATLTISRVEEGDEADYYCQVWDYSSDSMVFGGGTKLTVL', 10.35),
  ('BDG38.090 (antibody, V domains shown, IgG1) VH: QMQLVESGGGVVQPGRSLTLSCAASGFEFRTYGMHWVRQAPGKGLEWLGVIWDDGSNTHYADSVKGRFTITRDNSKNTLNLQMNSLRVEDTAVYYCARAPQWYLTAEAFDLWGQGTMVTVSS VL: SYILTQPPSVSVAPGETARITCGGNLIGARLVHWYQQKPGQAPVLVVYDDSDRPSRIPERFSGSNIGNTATLTIEDVEEGDEADYYCQVWDYYSDHMVFGGGTKLTVL', 10.12);

Query: For the binder BDG38.125 (antibody, V domains shown, IgG1) VH: QMQLVESGGGVVQPGRSLRLSCAASGFEFRTYGMHWVRQAPGKGLEWVAVIWDDGSNTHYADSVKGRFTITRDNSKNTLNLQMNSLRAEDTAVYYCVRAPQWYLTAEAFDLWGQGTMVTVSS VL: SYVLTQPPSVSVAPGETATITCGGNLIGARLVHWYQQKPGQAPVLVIYDDSDRPSRIPERFSGSNIGNTATLTIERVEEGDEADYYCQVWDYSSDHMVFGGGTKLTVL , what pKd is on record?
Result: 10.41
